# MEASUREMENT TARGET: T1, human GARP (glycoprotein A repetitions predominant, LRRC32) on the cell surface (human, UniProt Q14392 20-662)
# T1 construct: whole, on cells; also called hGARP; free GARP
# T1 sequence (looked up): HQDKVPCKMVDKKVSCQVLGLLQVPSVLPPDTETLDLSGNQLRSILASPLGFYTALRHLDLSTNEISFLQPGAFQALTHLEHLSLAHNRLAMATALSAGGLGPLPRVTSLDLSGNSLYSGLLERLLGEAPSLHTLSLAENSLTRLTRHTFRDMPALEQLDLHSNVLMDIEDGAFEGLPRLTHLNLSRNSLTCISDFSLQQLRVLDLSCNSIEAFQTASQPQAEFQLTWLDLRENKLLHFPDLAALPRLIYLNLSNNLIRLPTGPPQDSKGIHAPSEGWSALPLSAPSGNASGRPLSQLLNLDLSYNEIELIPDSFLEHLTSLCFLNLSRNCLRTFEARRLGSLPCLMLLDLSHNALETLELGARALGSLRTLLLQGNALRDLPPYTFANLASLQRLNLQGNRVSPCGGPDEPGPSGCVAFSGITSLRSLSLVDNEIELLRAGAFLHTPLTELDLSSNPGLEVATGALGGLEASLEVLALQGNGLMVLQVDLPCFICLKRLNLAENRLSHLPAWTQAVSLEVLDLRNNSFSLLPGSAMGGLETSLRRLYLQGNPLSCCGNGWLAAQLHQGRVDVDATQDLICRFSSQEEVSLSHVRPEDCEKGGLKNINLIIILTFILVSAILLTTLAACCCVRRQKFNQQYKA
# PROTOCOL SUMMARY: FACS, Ag(+) cells, supernatant heated 70 C 5 min, 5 ug/ml
READOUT KIND: MFI (MFI)
All answers are understood in MFI, so give the number only.

input: Entry huPIIO-1VH4VL3 (antibody, V domains shown, Humanized IgG from Expi293, tested as culture supernatant; also called H4L3; HuPIIO-1VH4/L3) VH: DVQLQESGPGLVKPSQTLSLTCTVSGYSITSDYAWNWIRQFPGNKLEWMGYISYSGSTSYTPSLKSRITISRDTSKNHFFLQLSSVTAEDTATYYCAKSGGDYYGSSSYWYFDVWGQGTTVTVSS VL: DIVLTQSPSSLAVSAGERVTMSCKSSQSLLNSRSQKNYLAWYQQKPGQPPKLLIYGASTRGSGVPDRFSGSGSGTDFTLTISSVQAEDVAVYYCQNDHSYPFTFGSGTKLEIKR has what MFI?
output: 27

input: What measured MFI goes with huPIIO-1VH4VL1 (antibody, V domains shown, Humanized IgG from Expi293, tested as culture supernatant; also called H4L1; HuPIIO-1VH4/L1) VH: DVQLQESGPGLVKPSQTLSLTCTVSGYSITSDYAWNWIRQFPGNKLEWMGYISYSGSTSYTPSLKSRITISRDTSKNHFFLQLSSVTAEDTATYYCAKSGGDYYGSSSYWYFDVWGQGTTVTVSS VL: DIVLTQSPSSLAVSLGERATMNCKSSQSLLNSRSQKNYLAWYQQKPGQPPKLLIYGASTRGSGVPDRFSGSGSGTDFTLTISSLQAEDVAVYYCQNDHSYPFTFGQGTKLEIKR ?
output: 26.9

input: I am curious: what MFI value has been reported for huPIIO-1VH1VL3 (antibody, V domains shown, Humanized IgG from Expi293, tested as culture supernatant; also called H1L3; HuPIIO-1VH1/L3) VH: QVQLQESGPGLVKPSQTLSLTCTVSGYSITSDYAWNWIRQFPGNKLEWMGYISYSGSTSYTPSLKSRVTISRDTSKNHFSLKLSSVTAADTAVYYCAKSGGDYYGSSSYWYFDVWGQGTMVTVSS VL: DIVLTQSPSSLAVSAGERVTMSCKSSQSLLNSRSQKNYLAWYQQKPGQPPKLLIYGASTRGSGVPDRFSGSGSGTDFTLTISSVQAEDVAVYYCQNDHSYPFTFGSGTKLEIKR ?
output: 26.3

input: Endpoint output: MFI of huPIIO-1VH3VL2 (antibody, V domains shown, Humanized IgG from Expi293, tested as culture supernatant; also called H3L2) VH: DVQLQESGPGLVKPSQTLSLTCTVSGYSITSDYAWNWIRQFPGNKLEWMGYISYSGSTSYTPSLKSRITISRDTSKNHFFLKLSSVTAADTATYYCAKSGGDYYGSSSYWYFDVWGQGTTVTVSS VL: DIVLTQSPSSLAVSLGERVTMNCKSSQSLLNSRSQKNYLAWYQQKPGQPPKLLIYGASTRGSGVPDRFSGSGSGTDFTLTISSVQAEDVAVYYCQNDHSYPFTFGQGTKLEIKR . Value?
output: 26.5
